tested_on: MERS-CoV 3CLpro (Middle East respiratory syndrome-related coronavirus, UniProt K9N638)
Sequence (K9N638 3248-3553 limits assumed): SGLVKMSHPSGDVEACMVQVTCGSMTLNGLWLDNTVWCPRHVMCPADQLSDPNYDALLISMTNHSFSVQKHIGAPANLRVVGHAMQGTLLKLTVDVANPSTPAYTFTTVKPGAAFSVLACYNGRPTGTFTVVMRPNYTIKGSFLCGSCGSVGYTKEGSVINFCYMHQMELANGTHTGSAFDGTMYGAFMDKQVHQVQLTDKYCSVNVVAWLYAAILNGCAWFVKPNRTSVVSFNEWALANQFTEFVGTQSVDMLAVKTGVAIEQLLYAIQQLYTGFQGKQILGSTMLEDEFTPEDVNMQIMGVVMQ
pIC50: −log10 of the molar value.
endpoint_name: pIC50

CC(C)C[C@@H]1NC(=O)CCCC[C@H]2CNC(=O)[C@H]2C[C@@H](C=O)NC1=O    < 4.70
CC(C)(C)NC(=O)[C@H]1CCCC[C@H]2CNC(=O)[C@H]2C[C@@H](C#N)NC(=O)[C@@H]2[C@@H]3[C@H](CN2C1=O)C3(C)C    4.70 to 6.00
CC1(C)[C@@H]2[C@H]3C(=O)N[C@H](C#N)C[C@@H]4C(=O)NC[C@@H]4CCCC[C@H](NC(=O)c4cc(C(F)(F)F)on4)C(=O)N3C[C@@H]21    6.00 to 7.00
CC1(C)[C@@H]2[C@H]3C(=O)N[C@H](C#N)C[C@@H]4C(=O)NC[C@@H]4CCCC[C@H](NC(=O)C4CC(F)(F)C4)C(=O)N3C[C@@H]21    > 7.00
CC(C)(C)C(=O)N[C@H]1C/C=C\[C@H]2CNC(=O)[C@H]2C[C@@H](C#N)NC(=O)[C@@H]2[C@@H]3[C@H](CN2C1=O)C3(C)C    < 4.70
CC(C)(C)OC(=O)N[C@H]1CCCC[C@H]2CCNC(=O)[C@H]2C[C@@H](C#N)NC(=O)[C@@H]2[C@@H]3[C@H](CN2C1=O)C3(C)C [Example 96]    > 7.00

Enquiry: Tell me the measured pIC50 of CC(C)(C)OC(=O)N[C@H]1CCCC[C@H]2CNC(=O)[C@H]2C[C@@H](C#N)NC(=O)[C@@H]2[C@H]3CC[C@H](C3)N2C1=O , please.
Return: 4.70 to 6.00

Enquiry: Do the same for CC1(C)[C@@H]2[C@H]3C(=O)N[C@H](C#N)C[C@@H]4C(=O)NC[C@@H]4CCCC[C@H](NC(=O)c4cc(Cl)ccc4Cl)C(=O)N3C[C@@H]21 please
Return: > 7.00

Enquiry: Do the same for CC1(C)[C@@H]2[C@H]3C(=O)N[C@H](C#N)C[C@@H]4C(=O)NC[C@@H]4/C=C/CC[C@H](NC(=O)C(F)(F)F)C(=O)N3C[C@@H]21 please
Return: > 7.00

Enquiry: Do the same for CC(C)(C)OC(=O)N[C@@]1(C)CCCCC[C@H]2CNC(=O)[C@H]2C[C@@H](C#N)NC(=O)[C@@H]2[C@@H]3[C@H](CN2C1=O)C3(C)C please
Return: < 4.70

Enquiry: Do the same for CC(C)C[C@@H]1NC(=O)[C@@H](NC(=O)OC(C)(C)C)CCC[C@H]2CNC(=O)[C@H]2C[C@@H](C=O)NC1=O please
Return: 6.00 to 7.00

Enquiry: Do the same for CC1(C)[C@@H]2[C@H]3C(=O)N[C@H](C#N)C[C@@H]4C(=O)NC[C@@H]4CCCC[C@H](NS(=O)(=O)C(F)(F)F)C(=O)N3C[C@@H]21 please
Return: > 7.00

Enquiry: Do the same for CC1(C)[C@@H]2[C@H]3C(=O)N[C@H](C#N)C[C@@H]4C(=O)NC[C@@H]4CCCC[C@H](Nc4ccnc(C(F)(F)F)n4)C(=O)N3C[C@@H]21 please
Return: 6.00 to 7.00

Attribution: patent US20260325540A1
